- Tested on: HCT-116
- Experiment Notes: NCI tumour cell line growth inhibition, 48 h
Calls of active or inactive are those of the source. Rule as the data show it: active = GI50 up to about 1.1 µM and inactive = higher.
Pick from 1 (yes) = active, 0 (no) = inactive when you respond.

COc1ccc(/C(CC2OC(=O)c3ccccc32)=N\NC(=O)C[N+](C)(C)C)cc1 (centres undefined); 0 (no)
O=C1/C(=C/c2ccccc2)CN(C(=O)OCc2ccccc2)C/C1=C\c1ccccc1; 1 (yes)
CC(=O)O[C@H]1CC[C@@]2(C)C(=CC[C@@H]3[C@@H]2CC[C@]2(C)c4c(C)n[nH]c4C[C@@H]32)C1; 0 (no)
C#Cc1ccccc1C(=O)OC; 0 (no)
COc1ccccc1NS(=O)(=O)c1cc(C(C)(C)C)ccc1OCCOc1ccc(C(C)(C)C)cc1S(=O)(=O)Nc1ccccc1OC; 0 (no)

Fill in: this test's call for Cc1nc(-c2cc3c(ccc4ccccc43)oc2=O)cc2c1c(=O)oc1ccc3ccccc3c12 is ___
0 (no)

Fill in: this test's call for O=C1c2ccccc2C(=O)c2c1oc1cc(O)c(Cl)cc21 is ___
0 (no)

Fill in: this test's call for CCCCCCCCCCCCCC(=S)N/C=C/OC is ___
0 (no)

Fill in: this test's call for O=C1N=C(c2ccccc2)OC1C(=O)c1ccccc1 (centres undefined) is ___
0 (no)

Fill in: this test's call for S=C1SSC2N=CC=CC12 (centres undefined) is ___
0 (no)

###

Exercise: state measured GI50 for each of the compounds provided.
- System: LOX IMVI
- Experiment Notes: NCI tumour cell line growth inhibition, 48 h
Calls of active or inactive are those of the source. Cut-off read from the data, not from the text of the source: active = GI50 up to about 1.1 µM and inactive = higher.

Example entries and their recorded answers appear below.
ON[C@H]1C[C@@H](n2cnc3c(NC4CC4)ncnc32)[C@H](O)[C@@H]1O; > 100 µM (inactive)
C[Si](C)(C)c1ccc(CC2(Cc3ccc([Si](C)(C)C)cc3)CCNC2)cc1; 1.8 µM (inactive)
CN(C)c1ccc(C=c2c3ccccc3n3c2c2ccccc2[n+]3C)cc1; 0.597 µM (active)
CC(C)(C)OC(=O)CN1CCNCCN(CC(=O)OC(C)(C)C)CCNCC1; 86.7 µM (inactive)
Cn1/c(=N\N=C2\C=C3CCCCC3(C)CC2)sc2ccccc21 (stereo not drawn); > 100 µM (inactive)
CN(CC(=O)O)S(=O)(=O)c1ccc(Cl)cc1; > 100 µM (inactive)
CC(=O)NNc1nc(C)c(C(=O)/C=C/c2cccc([N+](=O)[O-])c2)s1; > 100 µM (inactive)
Cc1ccc(-c2c(C#N)c(O)n(NS(=O)(=O)c3ccccc3)c(=O)c2C#N)cc1; > 100 µM (inactive)

For each of the items listed, what is its GI50?
1. CCN(C(=O)N[C@@H](C)C(=O)N[C@@H](Cc1ccccc1)C(=O)OC)c1ccccc1
2. CCOC(=O)C1C=C2O[C@@H]3OC4(CCCCC4)O[C@@H]3C2[C@H]2C(=O)C=CC(=O)[C@@]12C(=O)OC (stereo partly drawn)

1. 31.2 µM (inactive)
2. 15.5 µM (inactive)

For each of the items listed, what is its GI50?
1. COC(=O)c1c(O)ccc2c1c1c(n2Cc2cc(OC)cc(OC)c2)C(=O)c2ccccc2C1
2. SCCSCCCSCCS
3. CC(Oc1ccccc1)C(=O)NNC(=O)OC(C)(C)C (stereo not drawn)
4. CC1(C)CC(=O)C(=CNC(=O)c2ccncc2)C(=O)C1
5. CC[C@@H](C)[C@H]([C@H](CC(=O)N1CCC[C@@H]1[C@@H](OC)[C@H](C)C(=O)N[C@H](Cc1ccccc1)c1nccs1)OC)N(C)C(=O)[C@H](NC(=O)[C@@H](C(C)C)N(C)C)C(C)C
6. CCN1C(=O)N2C(OC)c3ccccc3C(Br)C2(OC)C1=O (stereo not drawn)
7. CC1OC(Oc2c(-c3cc(O)c(O)c(O)c3)oc3cc(O)cc(O)c3c2=O)C(O)C(O)C1O (stereo not drawn)
8. CCOCC(=O)N[C@H]1CCc2cc(OC(=O)COCC)c(OC)c(OC)c2-c2ccc(SC)c(=O)cc21

1. 33.1 µM (inactive)
2. 47.5 µM (inactive)
3. > 100 µM (inactive)
4. > 100 µM (inactive)
5. 0.000161 µM (active)
6. > 100 µM (inactive)
7. > 100 µM (inactive)
8. 0.0303 µM (active)

src = ChEMBL document CHEMBL1201862
